# Tested on: Escherichia coli
# Assay Explanation: Inhibition of protein synthesis in Escherichia coli by coupled transcription-translation assay
# Type: functional, organism-based
pIC50: −log10 of the molar value.
Measurement Type: pIC50

Worked set:
Cc1ccc(S(=O)(=O)N(Cc2ccccc2)c2ccc(Nc3nc(N4C[C@H](N)C[C@H](N)C4)nc(N4C[C@H](N)C[C@H](N)C4)n3)cc2O)cc1    5.52
Cc1ccc(S(=O)(=O)N(Cc2ccccc2)c2ccc(Nc3nc(N4C[C@H](N)C[C@H](N)C4)nc(N4C[C@@H](O)[C@@H](O)C4)n3)cc2O)cc1    4.37
Cc1ccc(S(=O)(=O)N(Cc2ccccc2)c2ccc(Nc3nc(N4C[C@H](N)C[C@H](N)C4)nc(N4C[C@H](CN)C[C@H](CN)C4)n3)cc2O)cc1    6.00
NC1CN(c2nc(Nc3ccc(NC(=O)c4ccc(Cl)cc4)c(O)c3)nc(N3C[C@H](N)C[C@H](N)C3)n2)C1    4.85
NC[C@@H]1C[C@H](CN)CN(c2nc(Nc3ccc(NC(=O)c4ccc5ccccc5c4O)cc3)nc(N3C[C@H](N)C[C@H](N)C3)n2)C1    5.10

a = N[C@@H]1C[C@H](N)CN(c2nc(Nc3ccc(NC(=O)c4ccc5ccccc5c4O)cc3)nc(N3C[C@@H](N)C[C@@H](O)C3)n2)C1
b = NC[C@@H]1C[C@H](N)CN1c1nc(Nc2ccc(NC(=O)c3ccc4ccccc4c3O)cc2)nc(N2C[C@H](N)C[C@H](N)C2)n1
IN: Could you determine which record has the numerically smaller pIC50? Candidates: a and b The response must carry the label of the picked entry.
OUT: a

====

# System: Staphylococcus aureus
# Assay Explanation: Antibacterial activity against Staphylococcus aureus ATCC 25923
# Type: functional
Measurement Type: MIC (µg/mL)

Worked set:
Cc1ccc(S(=O)(=O)N(Cc2ccccc2)c2ccc(Nc3nc(N4C[C@H](N)C[C@H](N)C4)nc(N4C[C@@H](O)[C@@H](O)C4)n3)cc2O)cc1    32
NCCN(CCN)c1nc(Nc2ccc(NC(=O)c3ccc4ccccc4c3O)cc2)nc(N2C[C@H](N)C[C@H](N)C2)n1    8
N[C@@H]1C[C@H](N)CN(c2nc(Nc3ccc(NC(=O)c4ccc5ccccc5c4O)cc3)nc(N3C[C@@H](O)[C@@H](O)C3)n2)C1    32
NC[C@@H]1C[C@H](CN)CN(c2nc(Nc3ccc(NC(=O)c4ccc(Cl)cc4)c(O)c3)nc(N3C[C@H](N)C[C@H](N)C3)n2)C1    16
Cc1ccc(S(=O)(=O)N(Cc2ccccc2)c2ccc(Nc3nc(N4C[C@H](N)C[C@H](N)C4)nc(N4C[C@@H](N)C[C@H]4CO)n3)cc2O)cc1    8
Cc1ccc(S(=O)(=O)N(Cc2ccccc2)c2ccc(Nc3nc(N4C[C@H](N)C[C@H](N)C4)nc(N4C[C@@H](N)C[C@H]4CN)n3)cc2O)cc1    2
N[C@@H]1C[C@H](N)CN(c2nc(Nc3ccc(NC(=O)c4ccc(Cl)cc4)c(O)c3)nc(N3C[C@@H](N)[C@@H](N)C3)n2)C1    16
Cc1ccc(S(=O)(=O)N(Cc2ccccc2)c2ccc(Nc3nc(N(CCN)CCN)nc(N4C[C@H](N)C[C@H](N)C4)n3)cc2O)cc1    8
Cc1ccc(S(=O)(=O)N(Cc2ccccc2)c2ccc(Nc3nc(N4C[C@H](N)C[C@H](N)C4)nc(N4C[C@H](N)C[C@H](N)C4)n3)cc2O)cc1    8

P = CN[C@@H]1C[C@H](NC)CN(c2nc(Nc3ccc(NC(=O)c4ccc5ccccc5c4O)cc3)nc(N3C[C@H](N)C[C@H](N)C3)n2)C1
Q = Cc1ccc(S(=O)(=O)N(Cc2ccccc2)c2ccc(Nc3nc(N4C[C@H](N)C[C@H](N)C4)nc(N4C[C@@H](N)C[C@@H](O)C4)n3)cc2O)cc1
R = NC[C@@H]1C[C@H](N)CN1c1nc(Nc2ccc(NC(=O)c3ccc4ccccc4c3O)cc2)nc(N2C[C@H](N)C[C@H](N)C2)n1
S = Cc1ccc(S(=O)(=O)N(Cc2ccccc2)c2ccc(Nc3nc(N4CC(N)C4)nc(N4C[C@H](N)C[C@H](N)C4)n3)cc2O)cc1
IN: Parameters: sort_field (MIC), sort_dir (desc). Respond with the label ranking, as requested.
OUT: S, Q, P, R

====

# Test system: Escherichia coli
# Assay Explanation: Inhibition of protein synthesis in Escherichia coli by coupled transcription-translation assay
# Assay type: functional, organism-based
pIC50: −log10 of the molar value.
Measurement Type: pIC50

Worked set:
NC[C@@H]1CN(c2nc(Nc3ccc(NC(=O)c4ccc5ccccc5c4O)cc3)nc(N3C[C@H](N)C[C@H](N)C3)n2)CC[C@@H]1O    4.68
N[C@@H]1C[C@H](N)CN(c2nc(Nc3ccc(NC(=O)c4ccc5ccccc5c4O)cc3)nc(N3CCCC(O)C3)n2)C1 (stereo not given in full)    3.51
N[C@@H]1C[C@H](N)CN(c2nc(Nc3ccc(NC(=O)c4ccc(Cl)cc4)c(O)c3)nc(N3C[C@@H](N)C[C@H]3CO)n2)C1    4.89
Cc1ccc(S(=O)(=O)N(Cc2ccccc2)c2ccc(Nc3nc(N(CCN)CCN)nc(N4C[C@H](N)C[C@H](N)C4)n3)cc2O)cc1    6.00
CN[C@@H]1C[C@H](NC)CN(c2nc(Nc3ccc(NC(=O)c4ccc5ccccc5c4O)cc3)nc(N3C[C@H](N)C[C@H](N)C3)n2)C1    5.10
NCCN(CCN)c1nc(Nc2ccc(NC(=O)c3ccc(Cl)cc3)c(O)c2)nc(N2C[C@H](N)C[C@H](N)C2)n1    4.74
N[C@@H]1C[C@H](N)CN(c2ncnc(Nc3ccc(NC(=O)c4ccc5ccccc5c4O)cc3)n2)C1    4.80
NC[C@H]1[C@@H](O)CCN1c1nc(Nc2ccc(NC(=O)c3ccc(Cl)cc3)c(O)c2)nc(N2C[C@H](N)C[C@H](N)C2)n1    4.72

A = N[C@@H]1C[C@H](N)CN(c2nc(Nc3ccc(NC(=O)c4ccc(Cl)cc4)c(O)c3)nc(N3C[C@@H](O)[C@@H](O)C3)n2)C1
B = Cc1ccc(S(=O)(=O)N(Cc2ccccc2)c2ccc(Nc3nc(N4CCCC(O)C4)nc(N4C[C@H](N)C[C@H](N)C4)n3)cc2O)cc1 (stereo not given in full)
IN: For this pair, A and B , which shows a numerically higher pIC50? The response must carry the label of the picked entry.
OUT: B

====

# Test system: Staphylococcus aureus
# Assay Explanation: Antibacterial activity against Staphylococcus aureus ATCC 25923
# Assay type: functional
Measurement Type: MIC (µg/mL)

A = N[C@@H]1C[C@H](N)CN(c2nc(Nc3ccc(NC(=O)c4ccc5ccccc5c4O)cc3)nc(N3C[C@@H](N)C[C@H]3CO)n2)C1
B = NC[C@@H]1C[C@H](N)CN1c1nc(Nc2ccc(NC(=O)c3ccc(Cl)cc3)c(O)c2)nc(N2C[C@H](N)C[C@H](N)C2)n1
C = N[C@@H]1C[C@H](N)CN(c2nc(Nc3ccc(NC(=O)c4ccc5ccccc5c4O)cc3)nc(N3CCCC(O)C3)n2)C1 (some centres not stated)
IN: Which order do these items take when sorted by rising MIC? List them. Respond with the label ranking, as requested.
OUT: A, C, B
(A: 8 µg/mL, C: 16 µg/mL, B: 32 µg/mL)

====

# Tested on: Staphylococcus aureus
# Assay Explanation: Antibacterial activity against Staphylococcus aureus ATCC 25923
# Format: functional
Measurement Type: MIC (µg/mL)

Worked set:
NC[C@H]1[C@@H](O)CCN1c1nc(Nc2ccc(NC(=O)c3ccc4ccccc4c3O)cc2)nc(N2C[C@H](N)C[C@H](N)C2)n1    16
N[C@@H]1C[C@H](N)CN(c2nc(Nc3ccc(NC(=O)c4ccc(Cl)cc4)c(O)c3)nc(N3C[C@@H](N)C[C@H]3CO)n2)C1    32
N[C@@H]1C[C@H](N)CN(c2nc(Nc3ccc(NC(=O)c4ccc5ccccc5c4O)cc3)nc(N3C[C@@H](N)C[C@@H](O)C3)n2)C1    8
N[C@@H]1C[C@H](N)CN(c2nc(Nc3ccc(NC(=O)c4ccc(Cl)cc4)c(O)c3)nc(N3C[C@@H](O)[C@@H](O)C3)n2)C1    64
NC[C@@H]1C[C@H](CN)CN(c2nc(Nc3ccc(NC(=O)c4ccc5ccccc5c4O)cc3)nc(N3C[C@H](N)C[C@H](N)C3)n2)C1    4
Cc1ccc(S(=O)(=O)N(Cc2ccccc2)c2ccc(Nc3nc(N4C[C@H](N)C[C@H](N)C4)nc(N4CC[C@H](O)[C@@H]4CN)n3)cc2O)cc1    8
N[C@@H]1C[C@H](N)CN(c2nc(Nc3ccc(NC(=O)c4ccc(Cl)cc4)c(O)c3)nc(N3C[C@H](N)C[C@H](N)C3)n2)C1    16
N[C@@H]1C[C@H](N)CN(c2nc(Nc3ccc(NC(=O)c4ccc(Cl)cc4)c(O)c3)nc(N3CCCC(O)C3)n2)C1 (some centres undefined)    32

A = NC[C@@H]1CN(c2nc(Nc3ccc(NC(=O)c4ccc(Cl)cc4)c(O)c3)nc(N3C[C@H](N)C[C@H](N)C3)n2)CC[C@@H]1O
B = Cc1ccc(S(=O)(=O)N(Cc2ccccc2)c2ccc(Nc3nc(N4C[C@H](N)C[C@H](N)C4)nc(N4C[C@H](CN)C[C@H](CN)C4)n3)cc2O)cc1
C = Cc1ccc(S(=O)(=O)N(Cc2ccccc2)c2ccc(Nc3nc(N4C[C@H](N)C[C@H](N)C4)nc(N4C[C@@H](N)[C@@H](N)C4)n3)cc2O)cc1
D = N[C@@H]1C[C@H](N)CN(c2nc(Nc3ccc(NC(=O)c4ccc(Cl)cc4)c(O)c3)nc(N3C[C@@H](N)C[C@@H](O)C3)n2)C1
IN: Sort ascending by MIC. Respond with the label ranking, as requested.
OUT: B, C, A, D
